B1: Homeobox protein cut-like 2, residues 895 to 963; numbered along this chain, O14529 (parent)
chain: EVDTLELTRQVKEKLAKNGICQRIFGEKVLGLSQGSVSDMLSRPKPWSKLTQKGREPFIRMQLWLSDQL

- Variants of: B1
- method description: abundance fitness (aPCA) (normalised: wild type 0, dead -1); higher = more abundant; growth selection in yeast, the domain comes from the species named
- experimental conditions: Homo sapiens
Binary call on abundance fitness: TRUE from -0.3 upward, FALSE beneath that.

Answered cases to consult:
>>> print(df.to_string())
   variant_label  category_label
0           G26K            TRUE
1           T51A            TRUE
2           M40N           FALSE
3            L5K            TRUE
4           L50R           FALSE
5            T4Y           FALSE
6           E13G            TRUE
7           P46W            TRUE

Threshold query (abundance fitness >= -0.3) on P46Y
TRUE

Can S36M be said to have abundance fitness at or above -0.3?
TRUE

Record Q62F ; criterion: abundance fitness no lower than -0.3. Met?
FALSE

Entry L41M : is its abundance fitness no less than -0.3?
TRUE

Dear colleague, could you confirm whether G26I has abundance fitness at or above -0.3?
TRUE

Determine whether measured abundance fitness meets or exceeds -0.3 for L65C
FALSE

Entry K17V : is its abundance fitness no less than -0.3?
TRUE

Please tell me: is the variant S42L at or over -0.3 in terms of abundance fitness?
TRUE
